Please provide measured Bliss excess for the entries that follow.
- System: SNU-C2B (Colorectal Carcinoma);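 further: after 72 h of two-drug dosing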
- PROTOCOL TEXT: Bliss excess, mean over the matrix (fraction); higher = more synergy
Numbers only.

q: Give reported Bliss excess value for NC1(C(=O)N[C@@H](CCO)c2ccc(Cl)cc2)CCN(c2ncnc3[nH]ccc23)CC1 [Capivasertib] + C[C@@H]1COCCN1C2=NC(=NC(=C2)C3(CC3)[S@](=N)(=O)C)C4=C5C=CNC5=NC=C4 [AZD6738] (first compound max 10 µM, 7x7, partner max 10 µM)
a: 0.0158

Okay, now this compound:
q: Give reported Bliss excess value for COc1cccc(OCCCN)c1-c1cc(Nc2cnc(C#N)cn2)n[nH]1 [Prexasertib] + C=CCn1c(=O)c2cnc(Nc3ccc(N4CCN(C)CC4)cc3)nc2n1-c1cccc(C(C)(C)O)n1 [AZD1775] (first compound max 1 µM, partner max 1 µM)
a: -0.0336

---

- Tested on: AM-38 (Glioblastoma)
- PROTOCOL TEXT: combination Emax (second highest fraction inhibited in the dose matrix, 72 h); higher = more inhibition; extreme values may be limits of the assay
Classify as follows. Reported combination Emax greater than or equal to 0.6: 1.0. Reported combination Emax below: 0.0.

q: Hi, just wondering whether C[C@@H]1COCCN1c1cc(C2([S@](C)(=N)=O)CC2)nc(-c2ccnc3[nH]ccc23)n1 [AZD6738] + O=C(c1cc(Cc2n[nH]c(=O)c3ccccc23)ccc1F)N1CCN(C(=O)C2CC2)CC1 [Olaparib] (first compound max 10 µM, 7x7, partner max 10 µM) shows combination Emax of 0.6 or higher.
a: 1.0

q: Hi, just wondering whether C=CCn1c(=O)c2cnc(Nc3ccc(N4CCN(C)CC4)cc3)nc2n1-c1cccc(C(C)(C)O)n1 [AZD1775] + O=C(c1cc(Cc2n[nH]c(=O)c3ccccc23)ccc1F)N1CCN(C(=O)C2CC2)CC1 [Olaparib] (first compound max 1 µM, partner max 10 µM) shows combination Emax of 0.6 or higher.
a: 0.0

# next molecule below
q: Hi, just wondering whether COc1cccc(OCCCN)c1-c1cc(Nc2cnc(C#N)cn2)n[nH]1 [Prexasertib] + CCc1c2c(nc3ccc(O)cc13)-c1cc3c(c(=O)n1C2)COC(=O)[C@]3(O)CC [SN-38] (first compound max 1 µM, 7x7, partner max 0.3 µM) shows combination Emax of 0.6 or higher.
a: 1.0

---

- Test system: SCC-4 (Oral Cavity Carcinoma)
- PROTOCOL TEXT: combination Emax (second highest fraction inhibited in the dose matrix, 72 h); higher = more inhibition; extreme values may be limits of the assay
Please provide measured combination Emax for the entries that follow.
One number for each entry.

q: Give reported combination Emax value for CN(CCO)CC[C@H](CSc1ccccc1)Nc1ccc(S(=O)(=O)NC(=O)c2ccc(N3CCC([C@@H](O)c4ccccc4-c4ccc(Cl)cc4)CC3)cc2)cc1S(=O)(=O)C(F)(F)F [AZD4320] + Nc1ccn([C@@H]2O[C@H](CO)[C@@H](O)C2(F)F)c(=O)n1 [Gemcitabine] (first compound max 1 µM, 7x7, partner max 0.3 µM)
a: 0.743

q: Give reported combination Emax value for CN(C)CCCOc1ccc(-c2ccc3ncc4c(c3c2)n(C2CCOCC2)c(=O)n4C)cn1 [AZD0156] + C=CCn1c(=O)c2cnc(Nc3ccc(N4CCN(C)CC4)cc3)nc2n1-c1cccc(C(C)(C)O)n1 [AZD1775] (first compound max 1 µM, partner max 1 µM)
a: 0.526

New cases:
q: Give reported combination Emax value for C[C@@H]1COCCN1c1cc(C2([S@](C)(=N)=O)CC2)nc(-c2ccnc3[nH]ccc23)n1 [AZD6738] + Nc1ccn([C@@H]2O[C@H](CO)[C@@H](O)C2(F)F)c(=O)n1 [Gemcitabine] (first compound max 10 µM, 7x7, partner max 0.3 µM)
a: 0.849

Reference source for all entries: the supplement of paper PMC11061612
